B1: ZNF263 (parent)
chain: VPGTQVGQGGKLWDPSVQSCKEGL

variants of: B1; assay: protein stability index of a GFP-peptide fusion (GPS, HEK-293T) (PSI 1-6); higher = more stable; settings: c terminus: a fixed tail appended;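 further: lentivirally expressed fusions sorted by FACS into six bins by GFP to DsRed ratio, PSI derived from sequencing read proportions per bin multiplied by bin number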
Record form. Attribute: protein stability index. Fill in for each entry.
Numbers only.

Below are worked cases with known answers.
{"columns": ["record_sequence", "protein stability index"],
 "data": [
  ["VPGTQVGQGGKLWDPSVQSSKEGL [C20S]", 4.31],
  ["VPGTQVGQGGKLWDWSVQSCKEGL [P15W]", 3.17],
  ["VPGTQVGQGGKLWDPSVSSCKEGL [Q18S]", 3.88],
  ["VPGTQVGQGGKLWDPSTQSCKEGL [V17T]", 3.74],
  ["VPGTQVGQGGKLWDPSVQSCKLGL [E22L]", 2.96]
]}

Please state protein stability index for every variant in the list that follows.
1. VPGTQVGQGGKLGDPSVQSCKEGL [W13G]
2. VPGTQVGQGGKLWDPSAQSCKEGL [V17A]
3. VPGTQVGQIGKLWDPSVQSCKEGL [G9I]
4. VPGTQVGQGGKLWDPSVQSCKEQL [G23Q]

5.5
4.38
3.8
3.51

Please state protein stability index for every variant in the list that follows.
1. VPGTQVGQGGKLWDPSVQWCKEGL [S19W]
2. VPGTQVGQGGKLWDPSVQSCHEGL [K21H]

1: 3.38; 2: 4.05
